These data points were gathered from the supplement of paper PMC10065799.

target: FGFR1 (UniProt P11362); test: phosphorylation enrichment, bacterial display (enrichment ratio); higher = better substrate or ligand; peptides without Tyr show the background;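 further: 11-residue human phosphosite peptides and single-mutation variants displayed on the E. coli surface, counted by deep sequencing, each peptide's frequency after selection divided by its frequency in the unselected input library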;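 further: frequency after pTyr selection over input frequency; kinase dosed for 20-30% of maximal phosphorylation in three min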
Sequence (P11362 whole entry, looked up): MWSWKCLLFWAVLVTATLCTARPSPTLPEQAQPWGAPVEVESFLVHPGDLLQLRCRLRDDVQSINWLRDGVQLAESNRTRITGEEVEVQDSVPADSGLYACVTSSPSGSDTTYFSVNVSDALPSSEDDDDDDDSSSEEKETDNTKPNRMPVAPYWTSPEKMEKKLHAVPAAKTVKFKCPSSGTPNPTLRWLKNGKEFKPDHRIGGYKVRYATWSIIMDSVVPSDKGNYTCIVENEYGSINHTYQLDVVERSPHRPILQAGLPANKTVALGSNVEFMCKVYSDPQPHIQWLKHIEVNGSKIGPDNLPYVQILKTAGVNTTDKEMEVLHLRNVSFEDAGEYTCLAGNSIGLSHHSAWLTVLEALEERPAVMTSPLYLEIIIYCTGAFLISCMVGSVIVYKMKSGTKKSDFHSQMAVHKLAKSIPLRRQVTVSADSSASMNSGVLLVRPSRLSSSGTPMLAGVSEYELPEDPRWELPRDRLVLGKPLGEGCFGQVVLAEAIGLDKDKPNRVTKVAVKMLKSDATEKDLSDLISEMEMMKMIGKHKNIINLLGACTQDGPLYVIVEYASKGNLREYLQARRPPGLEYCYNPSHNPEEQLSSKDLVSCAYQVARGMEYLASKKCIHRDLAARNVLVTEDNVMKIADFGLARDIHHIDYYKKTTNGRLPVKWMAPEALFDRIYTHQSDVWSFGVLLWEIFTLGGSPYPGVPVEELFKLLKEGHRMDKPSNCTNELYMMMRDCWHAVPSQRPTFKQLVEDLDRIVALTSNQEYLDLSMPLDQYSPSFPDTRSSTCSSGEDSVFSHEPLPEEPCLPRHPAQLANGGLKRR
metric name: phosphorylation enrichment
Answers are plain numbers.

Here is how some sequences turned out for phosphorylation enrichment.
biopolymer sequence | phosphorylation enrichment
RDLRTYIMPAH [PNMT_Y256] | 0.694
ALRHYYKLNII [ETV6_Y402] | 1.3
APRKVYDTQDD [ZFPL1_Y215_R218Q] | 0.549
CTTIHKNYMCN [TP53_Y234_Y234K] | 0.499
KVVVPYEPPEV [TP53_Y220_S215K] | 0.442

Kindly give each listed record's phosphorylation enrichment.
1. SSAKTYSRMRL [NBEAL2_Y1835_E1833K]
2. IDLEKYKLLPE [DHFR_Y157]
3. GFPVHYTDMSN [DNMT3B_Y815_V818M]
4. PFTRNYFVWAV [CYBA_Y87_R90W_YF]
5. IKGNMYYENSY [EGFR_Y112_R108K]

Solution:
1: 0.34; 2: 0.546; 3: 0.546; 4: 13.5; 5: 0.535

Could you report phosphorylation enrichment for every entry in the following list?
1. GLRCGYGVLGG [KRTAP20-2_Y15_Y13C]
2. GEDEPYSEPFA [APBA1_Y183_YF]
3. KVALVYGQMNQ [ATP5F1B_Y269_E274Q]
4. DSASAYADEVK [ETNPPL_Y189]

Solution:
1. 0.381
2. 0.603
3. 0.424
4. 0.655

---

molecular target: EPHB2 (UniProt P29323); test: phosphorylation enrichment, bacterial display (enrichment ratio); higher = better substrate or ligand; peptides without Tyr show the background
Sequence (P29323 whole entry, looked up): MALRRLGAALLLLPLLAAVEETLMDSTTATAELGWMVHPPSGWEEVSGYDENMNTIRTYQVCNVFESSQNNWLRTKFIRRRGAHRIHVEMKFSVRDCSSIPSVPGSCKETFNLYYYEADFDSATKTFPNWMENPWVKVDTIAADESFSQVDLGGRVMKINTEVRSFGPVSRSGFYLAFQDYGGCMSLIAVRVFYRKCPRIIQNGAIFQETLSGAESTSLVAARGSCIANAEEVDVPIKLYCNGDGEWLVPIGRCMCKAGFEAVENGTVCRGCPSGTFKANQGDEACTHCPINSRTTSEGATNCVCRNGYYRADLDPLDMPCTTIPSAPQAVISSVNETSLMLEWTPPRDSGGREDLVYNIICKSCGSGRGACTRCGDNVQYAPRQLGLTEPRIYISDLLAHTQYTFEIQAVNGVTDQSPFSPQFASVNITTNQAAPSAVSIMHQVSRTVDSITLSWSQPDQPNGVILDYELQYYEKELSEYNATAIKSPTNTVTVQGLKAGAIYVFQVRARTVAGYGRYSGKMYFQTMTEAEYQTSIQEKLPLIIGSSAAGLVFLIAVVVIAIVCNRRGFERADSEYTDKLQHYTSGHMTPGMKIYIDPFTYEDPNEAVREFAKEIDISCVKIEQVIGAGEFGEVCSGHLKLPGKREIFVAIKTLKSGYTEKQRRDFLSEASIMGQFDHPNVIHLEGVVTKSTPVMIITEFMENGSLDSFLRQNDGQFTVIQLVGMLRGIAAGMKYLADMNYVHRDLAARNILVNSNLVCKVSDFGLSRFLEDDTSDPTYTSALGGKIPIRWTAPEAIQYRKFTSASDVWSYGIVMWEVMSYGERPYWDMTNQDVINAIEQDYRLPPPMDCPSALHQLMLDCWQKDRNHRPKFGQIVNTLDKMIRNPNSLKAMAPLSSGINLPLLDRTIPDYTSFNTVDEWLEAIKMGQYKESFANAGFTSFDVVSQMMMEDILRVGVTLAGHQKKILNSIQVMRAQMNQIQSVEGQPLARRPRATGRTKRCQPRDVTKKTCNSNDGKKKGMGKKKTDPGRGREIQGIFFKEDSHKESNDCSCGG
metric name: phosphorylation enrichment
One number for each entry.

biopolymer sequence | assayed target | metric name | reported
AEMKRYAESSS [RAI14_Y869] | EPHB2 (UniProt P29323) | phosphorylation enrichment | 0.394

The following sequences each have a reported value; give each one's phosphorylation enrichment.
1. DVCKNYAEAKD [ALB_Y343]
2. IKNSGYISRYL [EIF2AK3_Y585]
3. NFRTTCVNANE [KCNH2_Y475_Y475C]
4. RNAAEYPLSSG [ABL1_Y139_L140P]
5. AKKKMYSCKTK [AGXT_Y231_R233C]
6. SAEEDYIADAK [KCNT1_Y876_M877I]

Solution:
1: 0.561; 2: 0.406; 3: 0.605; 4: 0.345; 5: 0.578; 6: 0.703

---

biological target: Hck (UniProt P08631); test: phosphorylation enrichment, bacterial display (enrichment ratio); higher = better substrate or ligand; peptides without Tyr show the background
Sequence (P08631 whole entry, looked up): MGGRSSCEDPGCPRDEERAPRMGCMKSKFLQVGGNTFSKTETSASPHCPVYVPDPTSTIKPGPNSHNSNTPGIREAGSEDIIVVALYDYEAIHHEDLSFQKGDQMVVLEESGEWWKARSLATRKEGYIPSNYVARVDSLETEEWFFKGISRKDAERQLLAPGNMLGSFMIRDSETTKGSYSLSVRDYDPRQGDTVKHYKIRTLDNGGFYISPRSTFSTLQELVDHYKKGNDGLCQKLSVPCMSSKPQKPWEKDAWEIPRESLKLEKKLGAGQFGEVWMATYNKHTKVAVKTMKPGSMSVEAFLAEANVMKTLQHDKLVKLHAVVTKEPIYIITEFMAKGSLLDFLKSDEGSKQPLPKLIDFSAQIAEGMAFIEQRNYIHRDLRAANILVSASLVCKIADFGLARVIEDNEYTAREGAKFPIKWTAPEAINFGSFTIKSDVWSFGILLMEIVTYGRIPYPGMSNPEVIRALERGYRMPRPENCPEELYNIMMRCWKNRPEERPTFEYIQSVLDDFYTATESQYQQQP
Is phosphorylation enrichment at least 0.6? Then MET. If not, NOT MET.

biopolymer sequence | assigned label
FPDFVYKCIKA [DPYSL2_Y479_R481C] | NOT MET

Problem: Could you verify whether the entry ANKNVYEVEPT [MEGF10_Y1075_R1072K] shows phosphorylation enrichment of no less than 0.6?
Solution: MET

Problem: Can SARSAYQEAID [SFN_Y151_M155I] be said to have phosphorylation enrichment at or above 0.6?
Solution: NOT MET

Problem: Reported phosphorylation enrichment reaches at least 0.6 for SIKGKYVTALY [KCNH2_Y611_D609G] ?
Solution: NOT MET

Problem: Does GKTQQYDCKWY [BCR_Y751] have a reported phosphorylation enrichment of at least 0.6?
Solution: NOT MET

Problem: Please indicate if the recorded phosphorylation enrichment for KMKGDYFRSLA [YWHAG_Y130_Y133S_YF] meets or exceeds 0.6.
Solution: NOT MET
